// Percent Effect lookup, one value per entry
# TGT: AMP-activated protein kinase, AMPK (Homo sapiens) (UniProt P54646+O43741+P54619+Q9UGJ0+Q9Y478+Q13131+Q9UGI9)
# RUN_DESCRIPTION: AMP-dependent Kinase enzyme assay. An in vitro enzyme assay that detects ADP turnover that is directly proportional to AMPK activity. This uses naive AMPK that is activated during the assay with MK-8722
# Type: functional
# Design: scale not given: direction of the effect not stated beside the values
# RUN_CONDITIONS: 30 µM

Solved entries (count: 5):
molecule=Cc1ccc(CNC(=O)c2ccc(=O)n(C)n2)c(OC2CCCC2)c1 result=12.3%
molecule=CC(C)(C)c1noc(CCCC(=O)N2CCNC(=O)CC2)n1 result=-2.76%
molecule=CCN(CC(=O)NC)C(=O)c1sc(Cc2ccccc2)nc1C result=-3.98%
molecule=COCCN(CCOC)C(=O)c1cnn(C)c1-n1c(C)ccc1C result=-1.28%
molecule=COc1cccc(CN(C)Cc2nc3cc(C)ccc3[nH]2)c1O result=5.48%

Query: Look up Percent Effect of `CC(=O)NCc1ccc(C(=O)N2CCCc3c(F)ccc(C)c32)cc1` and report it.
Result: -0.0493%

Query: Identify measured Percent Effect corresponding to `CC(C)N(Cc1ccc(C(=O)O)o1)C(C)C`
Result: 2.21%
